# EXPERIMENTAL_DETAILS: in vitro
# TEST_SETTINGS: human, IC50, No P450
Attribute: IC50

# MOLECULE, UNIT_ABBREV, RELATION_SIGN, IC50
records = [
    ("CN1CCCC1c1cccnc1 (centres unmarked) [Nicotine]", "µM", "=", 29.5),
    ("Oc1c(Cl)c(Cl)c(Cl)c(Cl)c1Cl [Pentachlorophenol]", "µM", ">", 1000),
]

* * *

# EXPERIMENTAL_DETAILS: in vitro
# TEST_SETTINGS: human, IC50, CYP1A2
ENDPOINT_LABEL: IC50 at 6 h

# COMPOUND, ENDPOINT_RESULT
data = [
    ("CC(=O)CC(c1ccccc1)c1c(O)c2ccccc2oc1=O (stereo not shown)", "> 1000 µM"),
]

* * *

# EXPERIMENTAL_DETAILS: in vitro
# TEST_SETTINGS: human, IC50, Mixture
pIC50: −log10 of the molar value.

# MOLECULE, pIC50
records = [
    ("CN1CCCC1c1cccnc1 (centres unmarked)", 3.42),
    ("Oc1c(Cl)c(Cl)c(Cl)c(Cl)c1Cl", 3.31),
]

* * *

# EXPERIMENTAL_DETAILS: Cytotoxicity of compounds and their P450-generated metabolites, Hep3B DataChip stamped with MetaChip
# TEST_SETTINGS: human, IC50, No P450, Hep3B DataChip; test compound only control without P450
Param label: returns t when IC50 at 6 h < 20 µM, returns f otherwise, including exact equality.

# MOLECULE, CLASS
records = [
    ("Cl[C@H]1[C@H](Cl)[C@@H](Cl)[C@@H](Cl)[C@H](Cl)[C@H]1Cl", "f"),
    ("C[C@H]1O[C@@H](O[C@H]2[C@@H](O)C[C@H](O[C@H]3[C@@H](O)C[C@H](O[C@H]4CC[C@@]5(C)[C@H](CC[C@@H]6[C@@H]5C[C@@H](O)[C@]5(C)[C@@H](C7=CC(=O)OC7)CC[C@]65O)C4)O[C@@H]3C)O[C@@H]2C)C[C@H](O)[C@@H]1O", "t"),
    ("CN(C)CCC=C1c2ccccc2CCc2ccccc21", "f"),
    ("C=C[C@H]1C[N@@]2CC[C@H]1C[C@@H]2[C@@H](O)c1ccnc2ccc(OC)cc12", "t"),
    ("COc1cccc2c1C(=O)c1c(O)c3c(c(O)c1C2=O)C[C@@](O)(C(=O)CO)C[C@@H]3O[C@H]1C[C@H](N)[C@H](O)[C@H](C)O1", "t"),
    ("NNC(=O)c1ccncc1", "f"),
    ("CCN(CC)CCCC(C)Nc1ccnc2cc(Cl)ccc12 (centres unmarked)", "f"),
    ("O=P1(N(CCCl)CCCl)NCCCO1 (centres unmarked) [Cyclophosphamide, cyclophosphamide]", "f"),
    ("O=c1[nH]c(=O)n(C2CCCO2)cc1F (centres unmarked)", "f"),
    ("O=c1[nH]cc(F)c(=O)[nH]1", "f"),
    ("CC(=O)Oc1ccccc1C(=O)O", "f"),
    ("CC(=O)Nc1ccc(O)cc1", "f"),
    ("CN(Cc1cnc2nc(N)nc(N)c2n1)c1ccc(C(=O)N[C@@H](CCC(=O)O)C(=O)O)cc1 [Methotrexate]", "t"),
    ("Cn1c(=O)c2[nH]cnc2n(C)c1=O", "f"),
]

* * *

# EXPERIMENTAL_DETAILS: in vitro
# TEST_SETTINGS: human, IC50, No P450

# MOLECULE, IC50 at 6 h
measured = [
    ("CC(=O)CC(c1ccccc1)c1c(O)c2ccccc2oc1=O (stereo not shown) [Warfarin]", "> 1 mM"),
]

* * *

# EXPERIMENTAL_DETAILS: in vitro
# TEST_SETTINGS: human, IC50, CYP2D6, Hep3B DataChip; MetaChip spots with CYP2D6

# MOLECULE, UNIT_ABBREV, IC50
measured = [
    ("C[n+]1ccc(-c2cc[n+](C)cc2)cc1 [Paraquat, paraquat]", "µM", 20.8),
]

* * *

# Tested on: human Hep3B cells
# EXPERIMENTAL_DETAILS: in vitro
ENDPOINT_LABEL: Activation or deactivation of the toxic response by CYP3A4

# COMPOUND, ASSAY_SYSTEM, ENDPOINT_RESULT
measured = [
    ("CN(Cc1cnc2nc(N)nc(N)c2n1)c1ccc(C(=O)N[C@@H](CCC(=O)O)C(=O)O)cc1 [Methotrexate]", "human Hep3B cells", "deactivated"),
    ("O=c1[nH]cc(F)c(=O)[nH]1 [5-Fluorouracil, 5-fluorouracil]", "human Hep3B cells", "deactivated"),
]

* * *

# Test system: MCF7 cells
# EXPERIMENTAL_DETAILS: cells
# TEST_SETTINGS: Homo sapiens, MCF7, read-out: IC50 from 3D control
pIC50: −log10 of the molar value.

# MOLECULE, pIC50
measured = [
    ("COc1cccc2c1C(=O)c1c(O)c3c(c(O)c1C2=O)C[C@@](O)(C(=O)CO)C[C@@H]3O[C@H]1C[C@H](N)[C@H](O)[C@H](C)O1 [Doxorubicin, doxorubicin]", 4.16),
    ("O=c1[nH]cc(F)c(=O)[nH]1 [5-Fluorouracil, 5-fluorouracil]", 4.46),
]

* * *

# EXPERIMENTAL_DETAILS: in vitro
# TEST_SETTINGS: human, IC50, CYP2D6

# COMPOUND, IC50 at 6 h
rows = [
    ("CC(=O)CC(c1ccccc1)c1c(O)c2ccccc2oc1=O (stereo not shown) [Warfarin]", "> 1000 µM"),
]

* * *

# Test system: human Hep3B cells
# EXPERIMENTAL_DETAILS: in vitro
ENDPOINT_LABEL: Activation or deactivation of the toxic response by CYP2D6

# SUBSTANCE_SMILES, ENDPOINT_RESULT
measured = [
    ("Nc1ccn([C@@H]2O[C@H](CO)[C@@H](O)[C@@H]2O)c(=O)n1", "deactivating"),
    ("CC(=O)O[C@H]1C(=O)[C@@]2(C)[C@H]([C@H](OC(=O)c3ccccc3)[C@]3(O)C[C@H](OC(=O)[C@H](O)[C@@H](NC(=O)c4ccccc4)c4ccccc4)C(C)=C1C3(C)C)[C@]1(OC(C)=O)CO[C@@H]1C[C@@H]2O", "deactivating"),
    ("Cn1c(=O)c2[nH]cnc2n(C)c1=O", "deactivating"),
]

* * *

# EXPERIMENTAL_DETAILS: in vitro
# TEST_SETTINGS: human, IC50, Mixture, Hep3B DataChip; equimolar mixture of CYP1A2, CYP2D6, CYP3A4
# Procedure: The cytotoxicity of drugs (or drug metabolites) was determined by staining the slide containing the cells with a Live/Dead test kit (Molecular Probes) that produces a green fluorescent response from living cells. […] where FReaction is the green fluorescence intensity of the reaction spot and FMax is the green fluorescence intensity of untreated fully viable cells. […]
pIC50: −log10 of the molar value.
ENDPOINT_LABEL: pIC50

# COMPOUND, ENDPOINT_RESULT
measured = [
    ("C[n+]1ccc(-c2cc[n+](C)cc2)cc1 [Paraquat, paraquat]", 4.35),
]

* * *

# EXPERIMENTAL_DETAILS: Cytotoxicity of compounds and their P450-generated metabolites, Hep3B DataChip stamped with MetaChip
# TEST_SETTINGS: human, IC50, CYP2D6, Hep3B DataChip; MetaChip spots with CYP2D6
Label true when IC50 at 6 h < 100 µM; otherwise false.

# COMPOUND, CLASS
measured = [
    ("CN(C)CCC=C1c2ccccc2CCc2ccccc21", "true"),
    ("CCN(CC)CCCC(C)Nc1ccnc2cc(Cl)ccc12 (centres unmarked)", "false"),
    ("Cl[C@H]1[C@H](Cl)[C@@H](Cl)[C@@H](Cl)[C@H](Cl)[C@H]1Cl", "false"),
    ("C[C@H]1O[C@@H](O[C@H]2[C@@H](O)C[C@H](O[C@H]3[C@@H](O)C[C@H](O[C@H]4CC[C@@]5(C)[C@H](CC[C@@H]6[C@@H]5C[C@@H](O)[C@]5(C)[C@@H](C7=CC(=O)OC7)CC[C@]65O)C4)O[C@@H]3C)O[C@@H]2C)C[C@H](O)[C@@H]1O", "true"),
    ("O=c1[nH]c(=O)n(C2CCCO2)cc1F (centres unmarked)", "false"),
    ("NNC(=O)c1ccncc1", "false"),
    ("CN(Cc1cnc2nc(N)nc(N)c2n1)c1ccc(C(=O)N[C@@H](CCC(=O)O)C(=O)O)cc1 [Methotrexate]", "true"),
    ("O=P1(N(CCCl)CCCl)NCCCO1 (centres unmarked) [Cyclophosphamide, cyclophosphamide]", "false"),
    ("O=c1[nH]cc(F)c(=O)[nH]1", "false"),
    ("C=C[C@H]1C[N@@]2CC[C@H]1C[C@@H]2[C@@H](O)c1ccnc2ccc(OC)cc12", "false"),
    ("CC(=O)Nc1ccc(O)cc1", "false"),
    ("Cn1c(=O)c2[nH]cnc2n(C)c1=O", "false"),
    ("CC(=O)Oc1ccccc1C(=O)O", "false"),
    ("COc1cccc2c1C(=O)c1c(O)c3c(c(O)c1C2=O)C[C@@](O)(C(=O)CO)C[C@@H]3O[C@H]1C[C@H](N)[C@H](O)[C@H](C)O1", "true"),
]
